Data provenance: patent US20240043514A1

- STUDY_TARGET: TLR9 (Homo sapiens, UniProt Q9NR96)
- Sequence (Q9NR96 26-1032): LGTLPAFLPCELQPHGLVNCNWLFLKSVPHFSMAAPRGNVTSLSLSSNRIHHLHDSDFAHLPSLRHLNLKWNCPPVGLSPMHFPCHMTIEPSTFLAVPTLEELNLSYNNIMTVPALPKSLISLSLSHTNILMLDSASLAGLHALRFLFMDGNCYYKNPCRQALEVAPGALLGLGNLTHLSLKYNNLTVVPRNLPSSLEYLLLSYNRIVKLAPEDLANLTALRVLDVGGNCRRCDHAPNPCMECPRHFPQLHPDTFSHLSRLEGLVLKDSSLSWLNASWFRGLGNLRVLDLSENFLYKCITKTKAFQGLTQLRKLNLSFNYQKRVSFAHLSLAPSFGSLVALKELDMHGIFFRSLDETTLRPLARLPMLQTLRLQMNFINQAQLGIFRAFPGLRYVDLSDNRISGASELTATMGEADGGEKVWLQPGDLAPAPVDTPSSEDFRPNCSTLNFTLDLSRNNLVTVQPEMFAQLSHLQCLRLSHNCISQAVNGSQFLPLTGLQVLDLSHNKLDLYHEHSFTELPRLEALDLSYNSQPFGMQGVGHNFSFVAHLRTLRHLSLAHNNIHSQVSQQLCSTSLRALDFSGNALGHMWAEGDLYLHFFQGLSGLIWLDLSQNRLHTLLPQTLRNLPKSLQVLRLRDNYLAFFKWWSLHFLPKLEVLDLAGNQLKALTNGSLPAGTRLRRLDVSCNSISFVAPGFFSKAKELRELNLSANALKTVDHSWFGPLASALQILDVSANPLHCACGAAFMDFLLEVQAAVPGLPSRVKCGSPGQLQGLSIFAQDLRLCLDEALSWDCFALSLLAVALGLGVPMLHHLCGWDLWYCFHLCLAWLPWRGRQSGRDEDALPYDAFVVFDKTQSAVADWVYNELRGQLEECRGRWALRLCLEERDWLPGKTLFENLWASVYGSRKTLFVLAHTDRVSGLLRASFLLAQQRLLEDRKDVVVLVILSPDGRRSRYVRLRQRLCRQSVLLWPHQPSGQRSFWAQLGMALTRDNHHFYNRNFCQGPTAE
- EXPERIMENTAL_DETAILS: Inhibition of CpG2006 (TLR9 agonist) by E6446
- MEASUREMENT_CONDITIONS: data not shown
ENDPOINT: IC50

query: Value lookup for IC50; key = Cl.Cl.c1cc(-c2nc3ccc(OCCCN4CCCC4)cc3o2)ccc1OCCCN1CCCC1 [E6446 dihydrochloride]
result: 10 to 30 nM
